Target: T1, human Claudin 18.2 (hCLDN18.2) (human, UniProt P56856-2 1-261)
T1 construct: whole, on cells; also called CLDN18A2; claudin 18 splice variant 2
Assay: FACS, HEK293-hCLDN18.2 cells
RESULT_TYPE: Mean maximum fluorescence intensity (Top MFI)
The reply should contain only the number, in MFI.

INSERT INTO measurements (binder, readout_value) VALUES
  ('ch-299B2 (antibody, V domains shown, also called chimeric antibody of clone 299B2) VH: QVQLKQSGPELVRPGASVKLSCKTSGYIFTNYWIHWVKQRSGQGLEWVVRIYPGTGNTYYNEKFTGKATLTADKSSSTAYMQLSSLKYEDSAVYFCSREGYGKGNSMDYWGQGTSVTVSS VL: DIVMTQSPSSLTVTAGEKVTMNCKSSQSLLNSGNQKNYLTWYQQKPGQPPKLLFYWASTRESGVPDRFTGSGSGTDFTLTISSVQAEDLAVYHCQNAYYYPYTFGGGTKLEMK', 10100),
  ('ch-229C9 (antibody, V domains shown, also called chimeric antibody of clone 229C9) VH: DVQLQESGPDLVKPSQSLSLICTVTGYSITSGYSWHWIRQFPGNKLEWMGYIHYSGGTNYNPSLKSRISFTRDTSKNQFFLQLNSVTTEDTATYYCARLERGNSFAYWGQGTLVTVSA VL: DIVMTQSPSSLTVTAGEKVTMSCKSTQSLLNSGNQKNYLTWYQQKPGQPPKLLIYWASTRESGVPDRFTGSGSGTDFTLTISSLQAEDLAVYYCQNDYFYPFTFGSGTKLEIK', 9870),
  ('ch-126A11 (antibody, V domains shown, also called chimeric antibody of clone 126A11) VH: QVQLKESGPGLVAPSQSLSITCTVSEFSLTTYGVSWVRQPPGKGLEWLGVIWGDGSTNYHSALISRLSISKDTSKSQVFLKLNSLQTDDTATYYCAKPGLRNAMDYWGQGTSVTVSS VL: DIVMTQSPSSLSVSAGEKVTMSCKSSQSLLNSGNQKNYLAWYQQKPGQPPKLLIYGASTRESGVPDRFTGSGSGTDFTLTISSVQAEDLAVYYCQNDLIYPLTFGAGTKLELK', 9970),
  ('ch-239E9 (antibody, V domains shown, also called chimeric antibody of clone 239E9) VH: QVQLQQSGPELVRPGVSVKISCKGSSYTFTDYTMHWVKQSHAKSLEWIGFIGVYYGNTNYNQKFKGKATMTVDKSSSTAYMELARLTSEDSAVYYCARIGRGNAMDYWGQGTSVTVSS VL: DIVMTQSPSSLTVTAGEKVTMSCKSSQSLLNSGNQKNYLTWYQQKPGQPPKLLIYWASTRESGVPDRFTGSGSGTDFTLTISSVQAEDLAVYNCQNAYSYPFTFGSGTKLEIK', 9270),
  ('ch-42D2 (antibody, V domains shown, also called chimeric antibody of clone 42D2) VH: EVQLQQSGPVLVKPGASVKMSCKASGYTFTDYQMNWVKQSHGKSLEWIGFINPYNGGIRYNQKFKGKATLTVDKSSSTAYMELNSLTSEDSAVYYCATIYFGNSFANWGQGTLVTVSA VL: DIVMTQSPSSLTVTAGEKVTMSCKPSQSLLNSGNQKNYLTWYQQKPGQPPRLLIYWASTRESGVPDRFTGSGSGTDFTLTISSVQAEDLAVYYCQNDYIYPYTFGGGTNLEIK', 10400),
  ('ch-59F9 (antibody, V domains shown, also called chimeric antibody of clone 59F9) VH: QVQLQQSGAELMKPGASVKLPCKASGYTLTGYWIEWLKQRPRHGLEWIGEILLGSGSIKYNVKFKDKATFTADTSSNTAYMQLNSLTTEDSAIYYCARKGLRGNSFDYWGQGTTLTVSS VL: DIVMTQSPSSLTVTAGEKVTMSCKSSQSLLNSGNQKSYLTWYQQKPGQPPKRLIYWASTRESGVPDRFTGSGSGTDFTLTISSVQAEDLAVYYCQNDYYYPFTFGSGTKLEIK', 9040);

As a next step, examine the binder that follows.
Any idea what its Mean maximum fluorescence intensity (Top MFI) is? The binder is ch-37G8 (antibody, V domains shown, also called chimeric antibody of clone 37G8) VH: EVQLQQSGPVLVKPGASVKMSCKASGYTFSDYHMNWVKQSHGKSLEWVGLINPYNGGIRFNQKFKGKATLTVDKSSSTAYMELNSLTSEDSAVYYCATIYYGNSFAYWGQGTLVTVSA VL: DIVMTQSPSSLTVTAGEKVTLTCKSGQSLLNSGNQKNYLTWYQQKPGQPPKLLIYWASTRESGVPDRFTGSGSGTDFTLTISGVQAEDLAVYYCQNDYFYPYTFGGGTKLEIK
10400
